EXPERIMENTAL PROTOCOL: Aqueous solubility in PBS buffer pH 7.4 (LC-MS)
Assay type: physicochemical
CONDITION NOTES: phosphate buffer, kinetic from dmso stock, PBS buffer pH 7.4, room temperature, spiked at 100 μM from DMSO stock
Overview of recorded solubility for various molecules

{"MOLECULE": "O=C(Oc1cccc(-c2cncc(-c3nnco3)c2)c1)N1CC2(CCC2)C1 [Example 146]", "solubility": "82.7 µM"}
{"MOLECULE": "O=C(NC1CCCCCC1)Oc1cc(O)cc(-c2cncc(-c3nnco3)c2)c1 [Example 165]", "solubility": "22.6 µM"}
{"MOLECULE": "O=C(NC1CCCCCC1)Oc1cc(F)cc(-c2cncc(-c3nnco3)c2)c1 [Example 198]", "solubility": "5.7 µM"}
{"MOLECULE": "O=C(NC1CCCCCC1)Oc1ccc(O)c(-c2cncc(-c3ncn[nH]3)c2)c1 [Example 231]", "solubility": "78.8 µM"}
{"MOLECULE": "O=C(NC1CCCCCC1)Oc1ccc(OC(F)(F)F)c(-c2cncc(-c3ncco3)c2)c1 [Example 91]", "solubility": "2.4 µM"}
{"MOLECULE": "CSc1ccc(OC(=O)NC2CCCCCC2)cc1-c1cncc(-c2nnco2)c1 [Example 191]", "solubility": "11.9 µM"}
